Biological target: Sodium/glucose cotransporter 2 (Homo sapiens)
Sequence (whole entry): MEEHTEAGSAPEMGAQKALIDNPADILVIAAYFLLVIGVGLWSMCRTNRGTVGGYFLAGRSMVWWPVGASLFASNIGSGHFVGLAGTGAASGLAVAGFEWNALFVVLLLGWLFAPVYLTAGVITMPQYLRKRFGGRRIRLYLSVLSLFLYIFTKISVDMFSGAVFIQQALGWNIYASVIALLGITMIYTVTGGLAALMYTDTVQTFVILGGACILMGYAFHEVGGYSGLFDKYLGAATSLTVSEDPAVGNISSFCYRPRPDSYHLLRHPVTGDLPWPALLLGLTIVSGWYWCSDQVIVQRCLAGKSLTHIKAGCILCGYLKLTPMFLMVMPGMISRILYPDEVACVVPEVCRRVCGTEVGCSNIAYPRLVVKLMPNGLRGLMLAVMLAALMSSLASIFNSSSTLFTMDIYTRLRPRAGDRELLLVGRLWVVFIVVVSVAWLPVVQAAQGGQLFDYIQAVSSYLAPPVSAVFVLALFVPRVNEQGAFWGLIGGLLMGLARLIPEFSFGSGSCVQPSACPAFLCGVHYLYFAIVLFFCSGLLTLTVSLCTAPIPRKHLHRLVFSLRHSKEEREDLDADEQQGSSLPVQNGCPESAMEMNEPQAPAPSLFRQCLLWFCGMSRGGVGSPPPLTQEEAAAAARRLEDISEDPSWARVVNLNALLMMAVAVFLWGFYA
Experiment: Inhibition of full-length human SGLT2 expressed in CHO cells assessed as decrease in [14C]-methyl alpha-D-glucopyranoside uptake at 0.5 uM after 1 hr by liquid scintillation counting method
Type: cell-based
observed property: inhibition (%)

[
  {
    "mol smiles": "COc1ccc(Cc2cc3c(cc2Cl)O[C@H]2[C@@H](O)[C@H](O)[C@@H](CO)O[C@@H]32)cc1",
    "value measured": 30.7
  },
  {
    "mol smiles": "CCOc1ccc(Cc2cc([C@@H]3O[C@H](CO)[C@@H](O)[C@H](O)[C@H]3O)c(O)cc2Cl)cc1",
    "value measured": 89.7
  },
  {
    "mol smiles": "OC[C@H]1O[C@H]2c3cc(Cc4cc5ccccc5s4)ccc3O[C@H]2[C@@H](O)[C@@H]1O",
    "value measured": 1.8
  }
]

* * *

A collection of compounds and their measured inhibition
Target: Sodium/glucose cotransporter 2 (Homo sapiens)
Experiment: Inhibition of full-length human SGLT2 expressed in CHO cells assessed as decrease in [14C]-methyl alpha-D-glucopyranoside uptake at 0.5 uM after 1 hr by liquid scintillation counting method
Type: cell-based

[
  {
    "mol smiles": "COc1ccc(Cc2cc([C@@H]3O[C@H](CO)[C@@H](O)[C@H](O)[C@H]3O)c(O)cc2Cl)cc1",
    "unit text": "%",
    "inhibition": 106
  },
  {
    "mol smiles": "CCc1ccc(Cc2cc([C@@H]3O[C@H](CO)[C@@H](O)[C@H](O)[C@H]3O)c(O)cc2Cl)cc1",
    "unit text": "%",
    "inhibition": 100
  },
  {
    "mol smiles": "CCc1ccc(Cc2cc3c(cc2Cl)O[C@H]2[C@@H](O)[C@H](O)[C@@H](CO)O[C@@H]32)cc1",
    "unit text": "%",
    "inhibition": 19.3
  },
  {
    "mol smiles": "CCOc1ccc(Cc2cc3c(cc2Cl)O[C@H]2[C@@H](O)[C@H](O)[C@@H](CO)O[C@@H]32)cc1",
    "unit text": "%",
    "inhibition": 8.6
  },
  {
    "mol smiles": "CCOc1ccc(Cc2ccc3c(c2)[C@@H]2O[C@H](CO)[C@@H](O)[C@H](O)[C@@H]2O3)cc1",
    "unit text": "%",
    "inhibition": 66.5
  },
  {
    "mol smiles": "OC[C@H]1O[C@@H](c2cc(Cc3cc4ccccc4s3)ccc2O)[C@H](O)[C@@H](O)[C@@H]1O",
    "unit text": "%",
    "inhibition": 103
  },
  {
    "mol smiles": "Cc1ccc(Cc2cc3c(cc2Cl)O[C@H]2[C@@H](O)[C@H](O)[C@@H](CO)O[C@@H]32)cc1",
    "unit text": "%",
    "inhibition": 4.2
  },
  {
    "mol smiles": "CCOc1ccc(Cc2ccc(O)c([C@@H]3O[C@H](CO)[C@@H](O)[C@H](O)[C@H]3O)c2)cc1",
    "unit text": "%",
    "inhibition": 104
  }
]

Value source: ChEMBL document CHEMBL4118179
